# System name: NDM-1 (Klebsiella pneumoniae)
# Sequence (C7C422 whole entry, looked up, species assumed): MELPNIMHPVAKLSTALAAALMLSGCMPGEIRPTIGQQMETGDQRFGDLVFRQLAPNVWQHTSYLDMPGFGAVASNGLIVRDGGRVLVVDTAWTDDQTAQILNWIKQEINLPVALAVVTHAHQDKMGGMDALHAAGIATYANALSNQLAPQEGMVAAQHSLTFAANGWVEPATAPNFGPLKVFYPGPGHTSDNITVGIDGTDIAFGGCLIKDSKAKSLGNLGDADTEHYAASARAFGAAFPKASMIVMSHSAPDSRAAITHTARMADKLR
Measurement type: pIC50
pIC50 is a log-scale quantity: -log10 of the concentration expressed in molar.

* CN(C)[C@H]1CCN(c2ccc(S(=O)(=O)N[C@@H]3CCNC3)c(S(N)(=O)=O)c2-c2nnn[nH]2)C1 | 7.07
* CC1(O)CCCN(c2ccc(S(=O)(=O)C3CNC3)c(S(N)(=O)=O)c2-c2nnn[nH]2)C1 (stereo not shown) | 8.49
* NCCNS(=O)(=O)C1CCN(c2ccc(S(=O)(=O)N[C@@H]3CCNC3)c(S(N)(=O)=O)c2-c2nn[nH]n2)CC1 | 9.60
* CC1(CN)CCN(c2ccc(S(=O)(=O)NC[C@H](O)CN)c(S(N)(=O)=O)c2-c2nn[nH]n2)CC1 | 8.61
* NS(=O)(=O)c1c(S(=O)(=O)N[C@@H]2CCNC2)ccc(N2CC[C@@H](O)C2)c1-c1nnn[nH]1 | 9.04

Attention now shifts to the item below.
Q: Kindly state the measured pIC50 obtained for NS(=O)(=O)c1c(S(=O)(=O)N[C@@H]2CCNC2)ccc(N2CCC(CCF)CC2)c1-c1nnn[nH]1 with NDM-1 (Klebsiella pneumoniae).
Ans: 9.80

====

# Test system: P. aeruginosa MB9798 (efflux+, IMP-1 plasmid)
# Details: efflux + (MB9798) strain; imipenem at 2 μg/mL; in the presence of a class A, C, D serine β-lactamase inhibitor closely related to relebactam
Label 1 when MB9798 MITC95 P. aeruginosa uM Efflux WT is at or above 2 µM; otherwise label -1.

Worked cases, answers included:
* C[C@H](CN)NS(=O)(=O)c1ccc(N2CC[C@@H](CN)[C@@H](F)C2)c(-c2nn[nH]n2)c1S(N)(=O)=O (racemic) [Example 8] | -1
* NS(=O)(=O)c1c(S(=O)(=O)C2CNC2)ccc(N2CCN(CCO)CC2)c1-c1nnn[nH]1 [Example 54] | 1
* NS(=O)(=O)c1c(S(=O)(=O)N[C@@H]2CCNC2)ccc(N2CC[C@@H](CO)C2)c1-c1nnn[nH]1 [Example 70] | 1
* NCCOCC1CCN(c2ccc(S(=O)(=O)NC[C@H](O)CN)c(S(N)(=O)=O)c2-c2nn[nH]n2)CC1 [Example 208] | -1
* NCCNS(=O)(=O)C1CCN(c2ccc(S(=O)(=O)NC[C@H](O)CN)c(S(N)(=O)=O)c2-c2nn[nH]n2)CC1 [Example 131] | -1
* NS(=O)(=O)c1c(S(=O)(=O)N[C@@H]2CCNC2)ccc(N2CCNC2=S)c1-c1nn[nH]n1 [Example 191] | 1
* C[C@H](CN)NS(=O)(=O)c1ccc(N2CC[C@@H](N)[C@@H](F)C2)c(-c2nn[nH]n2)c1S(N)(=O)=O (racemic) [Example 5] | -1
* NS(=O)(=O)c1c(S(=O)(=O)N[C@@H]2CCNC2)ccc(N2CCC(Cc3ccccn3)CC2)c1-c1nnn[nH]1 [Example 106] | 1
* C[C@H](CN)NS(=O)(=O)c1ccc(N2CCC(CN)CC2)c(-c2nnn[nH]2)c1S(N)(=O)=O [Example 36] | -1
* NS(=O)(=O)c1c(S(=O)(=O)N[C@@H]2CCNC2)ccc(NCCN2CCOCC2)c1-c1nnn[nH]1 [Example 64] | 1

Q: Answer whether MB9798 MITC95 P. aeruginosa uM Efflux WT of NC[C@@H](O)CNS(=O)(=O)c1ccc(N2CCC(C(N)CO)CC2)c(-c2nn[nH]n2)c1S(N)(=O)=O (single isomer, unassigned) [Example 180] is greater than or equal to 2 µM.
Ans: -1

Q: Answer whether MB9798 MITC95 P. aeruginosa uM Efflux WT of NS(=O)(=O)c1c(S(=O)(=O)N[C@@H]2CCNC2)ccc(N2CC[C@H](CO)C2)c1-c1nnn[nH]1 [Example 96] is greater than or equal to 2 µM.
Ans: 1

Q: Answer whether MB9798 MITC95 P. aeruginosa uM Efflux WT of NC[C@@H](O)CNS(=O)(=O)c1ccc(N2CCNC(CO)C2)c(-c2nn[nH]n2)c1S(N)(=O)=O (some centres unmarked) [Example 122] is greater than or equal to 2 µM.
Ans: -1

Q: Answer whether MB9798 MITC95 P. aeruginosa uM Efflux WT of C[C@H](CN)NS(=O)(=O)c1ccc(N2CCC(CCN)CC2)c(-c2nn[nH]n2)c1S(N)(=O)=O [Example 185] is greater than or equal to 2 µM.
Ans: -1

FYI, the data here is from patent US11207312B2.
